- Target: Cytochrome P450 2D6 (Homo sapiens, UniProt P10635)
- Sequence (P10635 whole entry): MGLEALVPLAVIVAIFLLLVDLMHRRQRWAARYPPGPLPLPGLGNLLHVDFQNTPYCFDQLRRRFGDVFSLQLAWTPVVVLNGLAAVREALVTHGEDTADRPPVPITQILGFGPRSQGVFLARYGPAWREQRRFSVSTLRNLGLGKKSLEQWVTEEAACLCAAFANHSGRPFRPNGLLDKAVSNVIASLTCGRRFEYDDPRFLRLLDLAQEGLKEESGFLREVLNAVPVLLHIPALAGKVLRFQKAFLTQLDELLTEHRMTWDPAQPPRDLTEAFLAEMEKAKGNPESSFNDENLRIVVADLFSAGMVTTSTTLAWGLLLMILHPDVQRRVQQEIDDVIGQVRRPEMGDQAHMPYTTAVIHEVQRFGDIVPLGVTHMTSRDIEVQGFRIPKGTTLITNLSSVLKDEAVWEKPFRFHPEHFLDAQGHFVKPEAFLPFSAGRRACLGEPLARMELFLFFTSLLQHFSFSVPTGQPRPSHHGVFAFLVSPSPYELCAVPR
Endpoint label: IC50

GET /value?item= Cc1cc(C)n(-c2cc(NC(=O)COc3cccc(CN(C)C)c3)nc(-c3ccc(C)o3)n2)n1 &field=IC50 returns > 6 µM

---

- Target: Adenosine receptor A2a (Homo sapiens, UniProt P29274)
- Sequence (P29274 whole entry): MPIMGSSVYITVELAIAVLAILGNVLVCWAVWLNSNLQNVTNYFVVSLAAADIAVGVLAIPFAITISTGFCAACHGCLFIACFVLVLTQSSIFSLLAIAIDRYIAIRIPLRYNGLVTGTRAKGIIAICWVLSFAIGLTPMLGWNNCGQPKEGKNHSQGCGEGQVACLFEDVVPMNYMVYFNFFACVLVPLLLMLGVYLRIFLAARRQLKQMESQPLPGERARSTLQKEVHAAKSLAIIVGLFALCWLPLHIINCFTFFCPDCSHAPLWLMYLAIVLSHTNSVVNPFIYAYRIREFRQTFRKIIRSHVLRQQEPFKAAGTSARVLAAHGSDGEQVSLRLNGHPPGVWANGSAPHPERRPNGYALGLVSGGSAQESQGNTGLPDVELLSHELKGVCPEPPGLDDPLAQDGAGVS
- Assay protocol: Binding affinity at adenosine A2A receptor
Catalogue of Ki readings, one per entry.
Use nM as the unit, but write only the number.

Sample answers from the record:
Cc1ccc(-c2nc(NC(=O)CCc3ccccc3F)cc(-c3nccs3)n2)o1: 16
CC(=O)Nc1cc(-n2cccn2)nc(-c2ccco2)n1: 0.6
CCN(C)Cc1cccc(OCC(=O)Nc2cc(-n3nc(C)cc3C)nc(-c3ccc(C)o3)n2)c1: 0.3
Cc1cc(C)n(-c2cc(NC(=O)COc3cccc(CN)c3)nc(-c3ccc(C)o3)n2)n1: 0.7

GET /value?item= CCNCc1cccc(OCC(=O)Nc2cc(-n3nc(C)cc3C)nc(-c3ccc(C)o3)n2)c1 &field=Ki returns 0.3
